- Tested on: L1210
- assay-method-text: Antitumor activity tested in L1210 cells
- Assay type: functional, cell-based
- assay-conditions: Mus musculus
result-type: IC50 (µM)

1) Cc1cccc2c1OP(=O)(OC[C@H]1O[C@@H](n3cc(F)c(=O)[nH]c3=O)C[C@@H]1O)OC2 (stereo partly specified); 0.04

---

# log10 of IC50 per entry for Cholinesterase (Homo sapiens, UniProt P06276)
result-type: log10 of IC50 (log10 of the value in µM)

1) CCC(C)c1ccc2c(c1)COP(=O)(OCC1C=CC(n3cc(C)c(=O)[nH]c3=O)O1)O2 (centres undefined); 0.52
2) Cc1cccc2c1O[P@@](=O)(OC[C@H](CO)OCn1cnc3c(O)nc(N)nc31)OC2; 1.36
3) Cc1cccc2c1OP(=O)(OCC1CC(O)C(n3cnc4c(N)ncnc43)O1)OC2 (centres undefined); 1.45
4) O=C1NC(=O)N([C@H]2C[C@H](O)[C@@H](CO[P@]3(=O)OCc4cccc(-c5ccccc5)c4O3)O2)CC1/C=C/Br (some centres undefined); 0.57
5) Cc1cn(C2C=C[C@@H](CO[P@]3(=O)OCc4cccc(C(C)(C)C)c4O3)O2)c(=O)[nH]c1=O (single isomer, unassigned); 0.41
6) Cc1cn(C2C=CC(COP3(=O)OCc4ccc5ccccc5c4O3)O2)c(=O)[nH]c1=O (centres undefined); -0.60
7) Cc1cn(C2C=CC(COP3(=O)OCc4c(F)c(C(C)(C)C)cc(C(C)(C)C)c4O3)O2)c(=O)[nH]c1=O (centres undefined); 1.68
8) COC(=O)CCc1ccc2c(c1)COP(=O)(OCC1C=CC(n3cc(C)c(=O)[nH]c3=O)O1)O2 (centres undefined); 0.94
9) COC(=O)CCc1cccc2c1OP(=O)(OCC1C=CC(n3cc(C)c(=O)[nH]c3=O)O1)OC2 (centres undefined); 0.43
10) Cc1ccc2c(c1)COP(=O)(OC[C@@H]1C=C[C@H](n3cc(C)c(=O)[nH]c3=O)O1)O2 (some centres undefined); 0.66

---

- study-target: Cholinesterase (Homo sapiens)
result-type: IC50 (µM)

1) Cc1cn(C2C=CC(COP3(=O)OCc4cc(CCC(=O)OCc5ccccc5)ccc4O3)O2)c(=O)[nH]c1=O (stereo not given); 22
2) Cc1cn(C2C=CC(COP3(=O)OCc4c(Cl)cccc4O3)O2)c(=O)[nH]c1=O (stereo not given); 0.57
3) Cc1cn(C2C=CC(COP3(=O)OCc4cccc(CCC(=O)OC(C)(C)C)c4O3)O2)c(=O)[nH]c1=O (stereo not given); 3.4
4) Cc1cccc2c1OP(=O)(OCC1C=CC(n3cnc4c(N)ncnc43)O1)OC2 (stereo not given); 1.2

---

Measured pIC50 values are reported for all entries that follow.
- study-target: Cholinesterase (Homo sapiens, UniProt P06276)
- Sequence (P06276 whole entry): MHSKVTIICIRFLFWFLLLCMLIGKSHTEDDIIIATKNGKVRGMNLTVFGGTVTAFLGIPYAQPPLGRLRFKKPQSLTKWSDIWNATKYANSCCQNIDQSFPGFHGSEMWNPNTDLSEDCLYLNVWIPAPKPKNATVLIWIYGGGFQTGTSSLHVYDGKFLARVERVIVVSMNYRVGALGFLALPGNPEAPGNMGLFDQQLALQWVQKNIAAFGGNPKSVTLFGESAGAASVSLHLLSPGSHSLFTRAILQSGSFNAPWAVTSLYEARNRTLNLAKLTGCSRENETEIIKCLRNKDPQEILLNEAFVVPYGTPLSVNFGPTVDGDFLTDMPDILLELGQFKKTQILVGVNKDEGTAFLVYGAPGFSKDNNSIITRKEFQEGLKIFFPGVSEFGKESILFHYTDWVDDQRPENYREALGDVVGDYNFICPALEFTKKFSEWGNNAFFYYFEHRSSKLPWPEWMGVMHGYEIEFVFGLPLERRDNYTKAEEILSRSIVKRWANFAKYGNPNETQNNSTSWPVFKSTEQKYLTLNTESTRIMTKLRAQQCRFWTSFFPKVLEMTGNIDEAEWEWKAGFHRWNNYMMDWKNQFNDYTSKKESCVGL
- assay-method-text: Inhibitory activity towards human butyrylcholinesterase
pIC50: −log10 of the molar value.
result-type: pIC50

1) Cc1cccc2c1OP(=O)(OCC1CCC(n3cnc4c(N)ncnc43)O1)OC2 (stereo not given); 6.04
2) Cc1cccc2c1OP(=O)(OC[C@@H]1C[C@H](F)[C@H](n3cnc4c(N)ncnc43)O1)OC2 (stereo not given in full); 5.30
3) Cc1cccc2c1OP(=O)(OC[C@@H]1C[C@@H](F)[C@H](n3cnc4c(N)ncnc43)O1)OC2 (stereo not given in full); 5.96
4) Cc1cn(C2C=CC(COP3(=O)Oc4ccccc4C(CCl)O3)O2)c(=O)[nH]c1=O (stereo not given); 5.41
